Recorded values, source PubChem BioAssay (NCI).

assay: NCI Yeast Anticancer Drug Screen. Data for the mec2-1 strain (AID 157); conditions: S. cerevisiae mec2-1 strain, active compounds read high; at 50.0 µM unless noted
About 79,000 compounds went through this panel and 15% of them were active in at least one assay; those are over-represented in the sample as a whole.
growth inhibition for assorted compounds
# unit: % | format: bare number

Notebook: Cc1ccc(Nc2nc(-c3ccc(-c4ccc([N+](=O)[O-])cc4)o3)cs2)cc1 , growth inhibition read as 19.5

response.value for S=c1[nH]nc2scnn12 (field: growth inhibition) = 3.55

GET /value?item= O=c1c2ccccc2[nH]c(=S)n1CCc1ccccn1 &field=growth inhibition returns 6.9

response.value for CC(C)(C)NC(=O)C(Br)c1ccccc1 (stereo unspecified) (field: growth inhibition) = 23.1

Value of measured growth inhibition for the entry CCOc1ccc(OCC)cc1 : -0.65

Value of measured growth inhibition for the entry CCOC(=O)/C=C1\SC(C)(C)C1NC(=O)OCc1ccccc1 (stereo unspecified) : -30.5

For reference, reported growth inhibition for O=CC(CO)C(C=O)n1ncc2ccccc21 (stereo unspecified) stands at 7.7

====

test: NCI Yeast Anticancer Drug Screen. Data for the cln2 rad14 strain (AID 165);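 also: 0% = growth equal to vehicle treated cultures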; conditions: S. cerevisiae cln2 rad14 strain, active compounds read high; at 50.0 µM unless noted
This is part of a sample that, as a whole, favours compounds with a hit. Of some 79,000 tested, about 15% had one in any assay.
Observation type: growth inhibition (%)
Field format: number, assumed %, no unit text.

{"Compound": "CC(C(=O)O)N1C(=O)CNC1=O (stereo not given)", "growth inhibition, %": -37.6}
{"Compound": "COc1ccc2oc(-c3cc4cc(OC)ccc4o3)cc2c1", "growth inhibition, %": -17.9}
{"Compound": "Cc1c(C)c(C)c(CCc2c(C)c(C)c(C)c(C)c2C)c(C)c1C", "growth inhibition, %": -16.5}
{"Compound": "CC(=O)CC(=O)ON(C)C(=O)Cc1ccccc1", "growth inhibition, %": -4.4}

// sample O=C1Oc2ccccc2C(=O)/C1=C/N1C(=O)N/C(=C\c2cccc(O)c2)C1=O , its growth inhibition was 45.5

The measured growth inhibition associated with Cc1cc(Cl)ccc1OCC(=O)NCCO reads 10.4

growth inhibition reported for this compound Clc1nc(NCCc2ccccc2)c2ncn(-c3ccccc3)c2n1 : 12.9

CCCc1cc2c(cc1CC#N)OCO2 has a reported growth inhibition of 2.4

// growth inhibition lookup, compound = Cc1c(C)c(C(=O)Cc2ccccc2)c(C)c(C(=O)Cc2ccccc2)c1C , result: 12.3

====

assay: NCI Yeast Anticancer Drug Screen. Data for the rad50 strain (AID 155);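 also: 0% = growth of vehicle-only cultures of the same strain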; conditions: S. cerevisiae rad50 strain growth inhibition, active compounds read high; at 50.0 µM unless noted
Compounds without any hit were thinned out: in the full panel of roughly 79,000, 15% have a hit.
Observation type: growth inhibition (%)
Use % as the unit, but write only the number.

Please review the entries below; each comes with its answer.
{"Molecule": "Cc1ccc(-c2cc(-c3ccccc3)c(C#N)c(=O)n2C2OC(CO)C(O)C(O)C2O)cc1 (centres undefined)", "Unit text": "%", "growth inhibition": -6.55}
{"Molecule": "Cc1ccc2c(N=Nc3ccc(C(=N)N)cc3)ccc(O)c2n1", "Unit text": "%", "growth inhibition": 99.3}
{"Molecule": "O=C(O)CCCCCCC(=O)O", "Unit text": "%", "growth inhibition": 2.1}

# input for lookup
The molecule COc1ccc(Nc2nc3ccccc3nc2-c2cccs2)cc1OC showed growth inhibition equal to -5.8

====

assay: NCI Yeast Anticancer Drug Screen. Data for the rad50 strain (AID 155);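 also: 0% = growth of vehicle-only cultures of the same strain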; conditions: S. cerevisiae rad50 strain growth inhibition, active compounds read high; at 50.0 µM unless noted
Compounds without any hit were thinned out: in the full panel of roughly 79,000, 15% have a hit.
Recorded growth inhibition for the following compounds
Enter your answer as a number in %; do not include the unit.

Before answering, review these 3 worked examples.
{"Compound": "CN(C)C(=O)Sc1cccc([N+](=O)[O-])c1", "Assay result": 9.5}
{"Compound": "c1ccc2c(c1)/C(=N/c1nccs1)N/C2=N\\c1nccs1", "Assay result": 14.1}
{"Compound": "CSc1nc2c(nc(N)n2C2OCC(O)C(O)C2O)c(=O)n1C (centres undefined)", "Assay result": 12.1}

The measured growth inhibition associated with CSc1ccc(NC(=O)c2ccc(Cl)cc2)cc1 reads -13.7

According to the records, this compound CCCCCCc1cc2cc(-c3csc(CC#N)n3)c(=O)oc2cc1O displays growth inhibition of 13.1

Form field growth inhibition, entry COC(=O)c1cc(NC(=O)Nc2cccc(C(C)=O)c2)cc(C(=O)OC)c1 : -9.75

====

experiment: NCI Yeast Anticancer Drug Screen. Data for the sgs1 mgt1 strain (AID 161);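 also: 0% = growth of cultures given vehicle only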; settings: S. cerevisiae sgs1 mgt1 strain; at 50.0 µM unless noted
This is part of a sample that, as a whole, favours compounds with a hit. Of some 79,000 tested, about 15% had one in any assay. The source made the active and inactive calls. No stated cut-off is given here; in the data, active means growth inhibition above about 70%; inactive means the rest.
Use one of these outcomes when replying: true = active, false = inactive

Req: Which outcome did this test record for the molecule CCN(CC)C(=O)c1c(N2CCOCC2)cc(N(CC)CC)oc1=O ?
Resp: false

Req: Name the outcome recorded for Cc1cc(C)c(C(=O)Cc2ccccc2)c(C)c1 in the assay.
Resp: false

Req: Given COC1OCC(N=[N+]=[N-])C(OS(C)(=O)=O)C1OS(C)(=O)=O (configuration not stated) , state the outcome it received in this test.
Resp: false

Req: Please share the test call associated with COC1=Nc2ccccc2N2CCN=C12 .
Resp: false

Req: GET /call?item= O=S1(=O)c2ccccc2Nc2cc3ccccc3cc21 returns the recorded outcome of this test.
Resp: false

Req: Recorded test call requested for CC(=O)NC1C(OCc2ccccc2)OC(CO)C(O)C1OCC(=O)NC(C)C(=O)NC(CCC(=O)NCCCCCNc1c2ccccc2nc2cccc([N+](=O)[O-])c12)C(N)=O (configuration not stated)
Resp: true

Req: Lab log entry: CSc1nc(N)cc(=O)n1C — outcome as called in the assay?
Resp: false

Req: Dear colleague, could you share the recorded outcome for CCC(SC(CC)(CC)C(=O)O)C(N)=O (configuration not stated) when you have a moment?
Resp: false

Req: Recorded call for CC1=NN2C(c3ccc([N+](=O)[O-])cc3)=CSC2=NC(C)(C)C1 ?
Resp: false

Req: Record lookup: outcome of this test for CC(C)CCNc1ccccc1 ?
Resp: false

Req: Assay result, entry C=CC(=O)OCCN(CCCC)CCCC — outcome?
Resp: false

====

experiment: NCI Yeast Anticancer Drug Screen. Data for the bub3 strain (AID 167); conditions: S. cerevisiae bub3 mutant strain, active compounds read high; at 50.0 µM unless noted
Compounds without any hit were thinned out: in the full panel of roughly 79,000, 15% have a hit.
Measured growth inhibition accompanies every entry in the list below.
API: value field is a number in %; no unit string.

Worked cases, growth inhibition given:
{"Compound": "CCOC(=O)c1[nH]c(C)c(/C=N/O)c1C", "Assay result": 10.1}
{"Compound": "C=CCC(C)(O)CCC(C)(O)CC=C (stereo unspecified)", "Assay result": 0.95}
{"Compound": "CC(NC(=O)CNC(=O)OCc1ccccc1)C(=O)O (stereo unspecified)", "Assay result": 8.1}
{"Compound": "CCOCCOC(=O)COc1ccccc1", "Assay result": -7.85}
{"Compound": "C/C(=C/CC1=C(O)c2ccccc2C(=O)C1=O)CO", "Assay result": 26}
{"Compound": "CNC(=O)C1C(=O)NC(=O)C1=C1CCCC1 (stereo unspecified)", "Assay result": 8.1}

Form field growth inhibition, entry CCCCCCCCCCSCC(=O)O : -30.6

# compound CN(C)C=Nc1ccc2c3c(cccc13)-c1ccccc1-2 ; its growth inhibition = 51.1

Entry CC/C(CC(=O)CCC(=O)Nc1c(C)cccc1C)=N\NC(=O)NN — recorded growth inhibition = 3

What the record says about Fc1cccc(C(Nc2nncs2)Nc2nncs2)c1F : growth inhibition is 5.15

Data point: CCOC(=O)C1=C(O)c2ccccc2C(=O)C1=O ; growth inhibition = 13.2

The compound listed as Cc1ccc2oc3c(ccc(=O)n3C)c(=O)c2c1 has a reported growth inhibition of -35.5

Quick note, growth inhibition for Cc1ccc2[nH]c(C(=O)O)cc2c1 landed at 9

compound CC1(C)CNC[C@]2(C)OCCCO[C@@]3(C)CNCC(C)(C)NC(=O)[C@](C)(CNCC(C)(C)NC3=O)OCCCO[C@](C)(CNCC(C)(C)NC2=O)C(=O)N1 , growth inhibition observed: -17.1

Form: compound = Cn1cc2c([N+](=O)[O-])cccc2n1 ; growth inhibition = -0.9

For reference, reported growth inhibition for C1CN(C23OC4(N5CCOCC5)C5C6CC(C7C6C4C72)C53)CCO1 (stereo unspecified) stands at -0.05

The compound listed as COCCCCCCCCCCCC(=O)O has a reported growth inhibition of -21.2
